system: SH-SY5Y cells; assay: Cytotoxicity assay (MTS) on SH-SY5Y; assay type: cell-based; settings: Homo sapiens, 24 h exposure, read-out: IC50 ± SE SH-SY5Y 24 h
reported_property: IC50

Enquiry: Value wanted: IC50 (SH-SY5Y cells) of entry CCCCCCCCCCCCCCCC[N+]12CCC(CC1)C(O)C2 (stereo not shown) [Compound 5]
Return: 7 µM

Enquiry: API: value(readout=IC50, system=SH-SY5Y cells) for record CCCCCCCCCCCCCC[N+]12CCC(CC1)C(O)C2 (stereo not shown) [Compound 4]
Return: 7 µM

Enquiry: Item CCCCCCCC[N+]12CCC(CC1)C(O)C2 (stereo not shown) [Compound 1] with SH-SY5Y cells - IC50?
Return: ≥ 800 µM

Enquiry: Can you look up IC50 on SH-SY5Y cells for CCCCCCCCCCCCCC[N+]12CCC(CC1)/C(=N\O)C2 [Compound 11] ?
Return: 60 µM
